- EXPERIMENT: Aqueous solubility (laser nephelometry)
- Format: physicochemical
- TEST SETTINGS: aqueous assay buffer with 1% DMSO, aqueous buffer, kinetic from dmso stock; pH 6.5, 1% DMSO, 30 minute incubation at 25° C.; read-out: Solubility pH 6.5
PARAMETER: solubility at 30 min

Known solubility at 30 min results, listed for orientation:
CCN(c1cc2nn(-c3ccc(C)cn3)c(C(=O)NC)c2cc1C1CC1)S(C)(=O)=O = > 100 µg/mL
CNC(=O)c1c2cc(C3CC3)c(N(CCO)S(C)(=O)=O)cc2nn1-c1ccc(C)cn1 = > 100 µg/mL
CCN(c1cc2nn(-c3ccc(C)nc3)c(C(=O)NC)c2cc1C1CC1)S(C)(=O)=O [Compound A, reference compound] = 6.3 to 12.5 µg/mL
CNC(=O)c1c2cc(C3CC3)c(N(CCC3(C)COC3)S(C)(=O)=O)cc2nn1-c1ccc(C)cn1 = 50 to 100 µg/mL
CNC(=O)c1c2cc(C3CC3)c(N(CC(F)F)S(C)(=O)=O)cc2nn1-c1ccc(C)cn1 = 50 to 100 µg/mL

Task: Requested field: solubility at 30 min. Item: "CNC(=O)c1c2cc(C3CC3)c(N(CCC3CN(C(C)=O)C3)S(C)(=O)=O)cc2nn1-c1ccc(C)cn1"
Output: > 100 µg/mL

----------
- STUDY SYSTEM: 1b (BK) NS5BΔ21 (Hepatitis C virus genotype 1b, UniProt P26663)
- Construct: 100 nM, 1b (BK) NS5BΔ21
- Sequence (P26663 2420-2989, stated change not applied): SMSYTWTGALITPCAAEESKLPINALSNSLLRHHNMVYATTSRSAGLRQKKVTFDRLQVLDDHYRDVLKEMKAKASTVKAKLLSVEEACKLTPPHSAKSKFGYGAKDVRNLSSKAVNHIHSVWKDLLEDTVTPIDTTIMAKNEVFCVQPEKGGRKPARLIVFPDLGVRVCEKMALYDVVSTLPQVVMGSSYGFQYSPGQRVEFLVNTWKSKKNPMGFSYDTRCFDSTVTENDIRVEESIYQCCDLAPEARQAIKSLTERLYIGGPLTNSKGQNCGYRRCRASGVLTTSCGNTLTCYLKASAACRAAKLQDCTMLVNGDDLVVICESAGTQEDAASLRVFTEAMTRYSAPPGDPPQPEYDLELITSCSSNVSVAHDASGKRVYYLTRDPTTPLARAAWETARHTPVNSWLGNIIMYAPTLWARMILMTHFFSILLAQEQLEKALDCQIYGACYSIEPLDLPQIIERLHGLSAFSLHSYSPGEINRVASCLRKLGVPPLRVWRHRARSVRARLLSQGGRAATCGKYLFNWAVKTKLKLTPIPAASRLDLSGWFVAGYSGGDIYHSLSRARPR
- EXPERIMENT: HCV Polymerase Inhibition Assay
- Assay type: biochemical
- TEST SETTINGS: NS5B G1b (IC50 μM), genotype 1b polymerase
PARAMETER: log10 IC50 (log10 of the value in µM)
Recorded IC50 (log10, µM)

Task: Hi! What's the reported log10 IC50 for CCN(c1cc2nn(-c3ccc(Cl)cn3)c(C(=O)NC)c2cc1C1CC1)S(C)(=O)=O [Compound 8] on 1b (BK) NS5BΔ21 (Hepatitis C virus genotype 1b, UniProt P26663)?
Output: -1.04

Task: Hi! What's the reported log10 IC50 for CNC(=O)c1c2cc(C3CC3)c(N(C)S(C)(=O)=O)cc2nn1-c1ccc(C)cn1 [Compound 6] on 1b (BK) NS5BΔ21 (Hepatitis C virus genotype 1b, UniProt P26663)?
Output: -0.51

----------
Catalogue of IC50 readings, one per entry.
- STUDY SYSTEM: 1b (BK) NS5BΔ21 (Hepatitis C virus genotype 1b, UniProt P26663)
- Construct: 100 nM, 1b (BK) NS5BΔ21
- EXPERIMENT: HCV Polymerase Inhibition Assay
- Type: biochemical
- TEST SETTINGS: 1b polymerase IC50 (μM) range, genotype 1b NS5B, 33P-GTP incorporation

Known IC50 results, listed for orientation:
CNC(=O)c1c2cc(C3CC3)c(N(CC(F)F)S(C)(=O)=O)cc2nn1-c1ccc(C)cn1 [Compound 3] = 0.5 to 0.99 µM
CCN(c1cc2nn(-c3ccc(Cl)cn3)c(C(=O)NC)c2cc1C1CC1)S(C)(=O)=O [Compound 8] = < 0.1 µM

Task: Hi! What's the reported IC50 for CNC(=O)c1c2cc(C3CC3)c(N(CCO)S(C)(=O)=O)cc2nn1-c1ccc(C)cn1 [Compound 2] on 1b (BK) NS5BΔ21 (Hepatitis C virus genotype 1b, UniProt P26663)?
Output: 1 to 10 µM
